Biological target: Human CDK12 wt/CycK (Homo sapiens (Human), UniProt Q9NYV4)
Sequence (Q9NYV4 whole entry): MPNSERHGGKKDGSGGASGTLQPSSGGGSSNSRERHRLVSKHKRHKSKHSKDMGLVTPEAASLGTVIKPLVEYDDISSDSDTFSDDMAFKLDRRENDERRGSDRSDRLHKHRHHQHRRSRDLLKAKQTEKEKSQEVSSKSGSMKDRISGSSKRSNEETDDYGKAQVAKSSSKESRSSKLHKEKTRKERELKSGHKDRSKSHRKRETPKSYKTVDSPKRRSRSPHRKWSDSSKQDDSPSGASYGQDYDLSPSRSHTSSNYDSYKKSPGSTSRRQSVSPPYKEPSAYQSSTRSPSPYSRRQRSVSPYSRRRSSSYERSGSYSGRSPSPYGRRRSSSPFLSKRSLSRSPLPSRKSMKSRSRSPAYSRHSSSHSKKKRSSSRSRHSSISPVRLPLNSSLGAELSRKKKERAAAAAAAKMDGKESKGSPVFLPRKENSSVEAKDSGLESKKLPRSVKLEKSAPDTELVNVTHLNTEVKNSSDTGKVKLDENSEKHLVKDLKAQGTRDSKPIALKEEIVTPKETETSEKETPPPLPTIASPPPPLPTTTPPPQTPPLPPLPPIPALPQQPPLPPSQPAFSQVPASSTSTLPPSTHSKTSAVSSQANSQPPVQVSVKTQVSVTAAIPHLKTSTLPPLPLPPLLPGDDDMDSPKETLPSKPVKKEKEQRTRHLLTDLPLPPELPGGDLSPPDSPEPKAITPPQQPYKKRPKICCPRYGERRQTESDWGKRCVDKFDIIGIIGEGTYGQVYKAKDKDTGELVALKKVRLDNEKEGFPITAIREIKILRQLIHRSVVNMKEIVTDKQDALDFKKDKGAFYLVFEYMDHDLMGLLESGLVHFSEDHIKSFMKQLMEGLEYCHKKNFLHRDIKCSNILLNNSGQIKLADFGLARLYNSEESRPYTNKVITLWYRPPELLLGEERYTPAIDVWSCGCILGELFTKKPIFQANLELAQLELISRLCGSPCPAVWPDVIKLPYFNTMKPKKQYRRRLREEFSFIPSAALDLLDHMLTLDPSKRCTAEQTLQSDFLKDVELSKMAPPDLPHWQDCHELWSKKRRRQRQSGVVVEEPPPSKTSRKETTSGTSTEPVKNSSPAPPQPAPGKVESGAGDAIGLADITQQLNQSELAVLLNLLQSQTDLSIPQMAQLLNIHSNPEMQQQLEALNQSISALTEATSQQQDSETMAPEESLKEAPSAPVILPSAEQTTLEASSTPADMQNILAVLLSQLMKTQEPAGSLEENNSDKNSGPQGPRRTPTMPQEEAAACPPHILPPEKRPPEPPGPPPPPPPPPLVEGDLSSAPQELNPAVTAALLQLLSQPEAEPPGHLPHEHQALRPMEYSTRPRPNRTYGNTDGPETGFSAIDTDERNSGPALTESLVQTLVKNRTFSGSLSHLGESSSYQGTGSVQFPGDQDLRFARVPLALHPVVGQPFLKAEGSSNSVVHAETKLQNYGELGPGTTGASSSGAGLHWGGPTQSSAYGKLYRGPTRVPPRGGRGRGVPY
Sequence (O75909 whole entry partner): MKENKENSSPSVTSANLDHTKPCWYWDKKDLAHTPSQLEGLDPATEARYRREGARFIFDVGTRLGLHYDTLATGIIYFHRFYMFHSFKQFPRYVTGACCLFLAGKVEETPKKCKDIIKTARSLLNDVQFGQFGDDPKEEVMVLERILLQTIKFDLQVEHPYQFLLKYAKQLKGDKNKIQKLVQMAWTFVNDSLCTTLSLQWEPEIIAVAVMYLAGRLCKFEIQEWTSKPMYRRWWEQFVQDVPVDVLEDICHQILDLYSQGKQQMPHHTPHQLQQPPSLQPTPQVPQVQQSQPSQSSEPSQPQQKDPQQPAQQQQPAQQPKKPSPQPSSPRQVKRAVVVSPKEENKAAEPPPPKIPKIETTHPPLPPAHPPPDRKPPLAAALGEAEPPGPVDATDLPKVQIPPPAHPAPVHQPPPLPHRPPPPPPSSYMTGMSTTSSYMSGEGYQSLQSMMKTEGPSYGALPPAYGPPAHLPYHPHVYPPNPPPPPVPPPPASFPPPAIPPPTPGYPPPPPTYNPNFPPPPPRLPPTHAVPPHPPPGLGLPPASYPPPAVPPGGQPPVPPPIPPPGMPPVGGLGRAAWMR
Test: Radiometric protein kinase assay (33PanQinase Activity Assay), CDK12
Format: biochemical
Settings: ratio of CDK7 IC50 to CDK12 IC50; greater than 1 indicates selectivity for CDK12
Endpoint name: CDK7/CDK12

Worked examples, 6 compounds total:
# Molecular string, CDK7/CDK12
rows = [
    ("O[C@H]1CNCC[C@@H]1CNc1cc(NCc2ccc(-c3nccs3)cc2)n2ncc(C3CC3)c2n1", 2.7),
    ("c1ccc(-c2ccc(CNc3cc(NCC4CCNCC4)nc4c(C5CC5)cnn34)cc2)nc1", 9.3),
    ("N[C@H]1CC(=O)N(c2cc(NCc3ccc(-c4ccccn4)cc3)n3ncc(C4CC4)c3n2)C1", 10.5),
    ("N#Cc1cnn2c(NCc3ccc(-c4ccccn4)cc3)cc(NC[C@H]3CCNC[C@@H]3O)nc12", 9.4),
    ("FC1(CNc2cc(NCc3ccc(-c4ccccn4)cc3)n3ncc(C4CC4)c3n2)CCNCC1", 7.9),
    ("c1ccc(-c2ccc(CNc3cc(O[C@H]4CCNC4)nc4c(C5CC5)cnn34)cc2)nc1", 9.8),
]

a = C1=C(c2cc(NCc3ccc(-c4ccccn4)cc3)n3ncc(C4CC4)c3n2)CNCC1
b = c1ccc(-c2ccc(CNc3cc(N[C@H]4CCCNC4)nc4c(C5CC5)cnn34)cc2)nc1
Ask: Which value of CDK7/CDK12 is smaller, the one for a or the one for b ? I would appreciate it if you answered with the label of your choice.
Result: b

---

Biological target: Human CDK12 wt/CycK (Homo sapiens (Human))
Assay: Radiometric protein kinase assay (33PanQinase Activity Assay), CDK12
Format: biochemical
Settings: ATP 0.3 μM; read-out: CDK12 IC50
Endpoint name: IC50 (nM)

Worked cases, IC50 given:
# Molecule, IC50 [nM]
measured = [
    ("CCc1cnn2c(NCc3ccc(-c4ccccc4)cc3)cc(NC[C@H]3CCNC[C@@H]3O)nc12 [PPA-082]", 44),
    ("O[C@H]1CNCC[C@@H]1CNc1cc(NCc2ccc(-c3ncccn3)cc2)n2ncc(C3CC3)c2n1 [PPA-029]", 63),
    ("N#Cc1cnn2c(NCc3ccc(-c4ccccc4)cc3F)cc(NC[C@H]3CCNC[C@@H]3O)nc12 [PPA-070]", 107),
]

P = c1ccc(-c2ccc(CNc3cc(O[C@@H]4CCCNC4)nc4c(C5CC5)cnn34)cc2)nc1 [PPA-061]
Q = c1ccc(-c2ccc(CNc3cc(NCC4CCNCC4)nc4c(C5CC5)cnn34)cc2)nc1 [PPA-040]
Ask: Lab note: record which item had the higher IC50, P or Q . Select an item and report its label.
Result: Q

---

Molecular target: Human CDK12 wt/CycK (Homo sapiens (Human))
Test: Radiometric protein kinase assay (33PanQinase Activity Assay), CDK12
Type: biochemical
Conditions: ATP 0.3 μM; read-out: CDK12 IC50
pIC50: −log10 of the molar value.
Endpoint name: pIC50

# Compound, pIC50
records = [
    ("FC1(F)CNCCC1CNc1cc(NCc2ccc(-c3ccccn3)cc2)n2ncc(C3CC3)c2n1 (stereo not shown)", 6.72),
    ("O[C@H]1CNCC[C@@H]1CNc1cc(NCc2ccc(-c3ccccn3)cc2)n2ncc(Cl)c2n1", 7.66),
]

A = CC(C)c1cnn2c(NCc3ccc(-c4ccncc4)cc3)cc(NC[C@H]3CCNC[C@@H]3O)nc12
B = FC1(CNc2cc(NCc3ccc(-c4ccccn4)cc3)n3ncc(C4CC4)c3n2)CCNCC1
Ask: Compare A and B and name the one whose reported pIC50 is smaller. Return value: the label identifying the chosen record.
Result: B

---

Target: Human CDK7/CycH/MAT1 (Homo sapiens (Human))
Assay: Radiometric protein kinase assay (33PanQinase Activity Assay), CDK7
Conditions: ATP 3 μM
pIC50: −log10 of the molar value.
Endpoint name: pIC50

Consider the reported pIC50 for these molecules:
# Molecule, pIC50
rows = [
    ("O[C@H]1CNCC[C@@H]1CNc1cc(NCc2cn(-c3ccccn3)cn2)n2ncc(C3CC3)c2n1 [PPA-025]", 6.23),
    ("c1ccc(-c2ccc(CNc3cc(NCC4CCNCC4)nc4c(C5CC5)cnn34)cc2)nc1 [PPA-040]", 5.16),
    ("CO[C@H]1CNCC[C@@H]1CNc1cc(NCc2ccc(-c3ccccn3)cc2)n2ncc(C3CC3)c2n1 [PPA-087]", 5.79),
]

a = N#Cc1cnn2c(NCc3ccc(-c4ccccn4)cc3)cc(NC[C@H]3CCNC[C@@H]3O)nc12 [PPA-010]
b = O[C@H]1CNCC[C@@H]1CNc1cc(NCc2ccc(-c3cscn3)cc2)n2ncc(C3CC3)c2n1 [PPA-035]
c = N#Cc1cnn2c(NCc3ccc(-c4ccccc4)cc3)cc(N[C@H]3CCNC3)nc12 [PPA-085]
Ask: Rank descending by pIC50. To answer, arrange all of the labels according to the requested order.
Result: b, a, c
(b: 6.95, a: 6.47, c: 6.17)

---

Target: Human CDK7/CycH/MAT1 (Homo sapiens (Human), UniProt P50613)
Sequence (P50613 whole entry): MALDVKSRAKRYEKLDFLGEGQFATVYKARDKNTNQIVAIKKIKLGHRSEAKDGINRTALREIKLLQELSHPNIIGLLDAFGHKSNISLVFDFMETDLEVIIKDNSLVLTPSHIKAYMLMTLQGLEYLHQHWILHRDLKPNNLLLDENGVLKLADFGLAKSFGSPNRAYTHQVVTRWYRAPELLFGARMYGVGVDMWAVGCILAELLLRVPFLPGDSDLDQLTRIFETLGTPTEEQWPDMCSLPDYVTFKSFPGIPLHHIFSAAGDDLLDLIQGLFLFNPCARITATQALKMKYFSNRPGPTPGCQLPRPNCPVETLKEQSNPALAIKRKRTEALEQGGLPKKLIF
Sequence (P51946 whole entry partner): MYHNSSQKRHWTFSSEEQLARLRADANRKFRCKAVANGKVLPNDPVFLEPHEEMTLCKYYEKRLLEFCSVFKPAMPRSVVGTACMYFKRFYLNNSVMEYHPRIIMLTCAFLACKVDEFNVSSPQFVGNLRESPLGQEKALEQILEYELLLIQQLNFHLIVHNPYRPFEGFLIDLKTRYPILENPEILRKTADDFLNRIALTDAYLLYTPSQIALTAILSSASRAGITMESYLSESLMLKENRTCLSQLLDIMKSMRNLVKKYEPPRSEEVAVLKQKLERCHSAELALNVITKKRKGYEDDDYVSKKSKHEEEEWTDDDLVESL
Sequence (P51948 whole entry partner): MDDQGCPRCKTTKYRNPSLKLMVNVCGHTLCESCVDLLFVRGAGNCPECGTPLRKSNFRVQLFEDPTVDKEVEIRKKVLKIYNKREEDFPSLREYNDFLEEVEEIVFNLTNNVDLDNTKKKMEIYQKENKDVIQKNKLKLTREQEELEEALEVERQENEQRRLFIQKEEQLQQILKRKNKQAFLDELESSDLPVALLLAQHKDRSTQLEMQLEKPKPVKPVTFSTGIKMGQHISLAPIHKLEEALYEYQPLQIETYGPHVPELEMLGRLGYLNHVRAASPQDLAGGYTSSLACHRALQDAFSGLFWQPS
Assay: Radiometric protein kinase assay (33PanQinase Activity Assay), CDK7
Type: biochemical
Conditions: ATP 3 μM
Procedure: Additionally for the CDK7 assay: • Human CDK7/CycH/MAT1 (ProQinase, 0366-0360-4—Lot 2). • RBER-CHKtide (ProQinase, 0581-0000-5—Lot 106). A radiometric protein kinase assay (^33PanQinase® Activity Assay) was used for measuring the kinase activity of the two protein kinases (CDK12/CDK7). […] The reaction mixture was incubated at 30° C. for 60 min and then stopped by the addition of 2% (v/v) H3PO4. […] Incorporation of ^33Pi was determined with a microplate scintillation count (Microbeta, Wallac). […]
Endpoint name: IC50 (nM)

Study these solved cases before continuing.
# Molecule, Endpoint name, Experimental value
data = [
    ("c1ccc(-c2ccc(CNc3cc(O[C@H]4CCNC4)nc4c(C5CC5)cnn34)cc2)nc1 [PPA-065]", "IC50", 284),
    ("c1ccc(-c2ccc(CNc3cc(N4CCOCC4)nc4c(C5CC5)cnn34)cc2)nc1 [PPA-033]", "IC50", 6650),
    ("c1ccc(-c2ccc(CNc3cc(N4CCNCC4)nc4c(C5CC5)cnn34)cc2)nc1 [PPA-038]", "IC50", 3020),
]

a = O[C@H]1CNCC[C@@H]1CNc1cc(NCc2ccc(-n3cccc3)cc2)n2ncc(C3CC3)c2n1 [PPA-017]
b = O[C@H]1CNCC[C@@H]1CNc1cc(NCc2ccc(-c3ncco3)cc2)n2ncc(C3CC3)c2n1 [PPA-031]
c = O[C@H]1CNCC[C@@H]1CNc1cc(NCc2ccc(-c3nccs3)cc2F)n2ncc(C3CC3)c2n1 [PPA-054]
d = Clc1cnn2c(NCc3ccc(-c4ccccn4)cc3)cc(N[C@H]3CCCNC3)nc12 [PPA-093]
Ask: Order field: IC50 | Direction: descending (largest first) When ranking, write the labels in the order the request describes.
Result: c, a, d, b
(c: 589 nM, a: 337 nM, d: 222 nM, b: 155 nM)

---

Molecular target: Human CDK7/CycH/MAT1 (Homo sapiens (Human))
Test: Radiometric protein kinase assay (33PanQinase Activity Assay), CDK7
Conditions: ATP 3 μM
pIC50: −log10 of the molar value.
Endpoint name: pIC50

# Molecule, pIC50
records = [
    ("C1=C(c2cc(NCc3ccc(-c4ccccn4)cc3)n3ncc(C4CC4)c3n2)CNCC1", 6.12),
]

I = F[C@@H]1CNC[C@H]1Oc1cc(NCc2ccc(-c3ccccn3)cc2)n2ncc(C3CC3)c2n1
II = O[C@H]1CNCC[C@@H]1CNc1cc(NCc2ccc(-c3ccccn3)cc2)n2ncc(C3CC3)c2n1
III = OC1CCN(c2cc(NCc3ccc(-c4ccccn4)cc3)n3ncc(C4CC4)c3n2)CC1
IV = c1ccc(-c2ccc(CNc3cc(OC4CNC4)nc4c(C5CC5)cnn34)cc2)nc1
V = N[C@H]1CC(=O)N(c2cc(NCc3ccc(-c4ccccn4)cc3)n3ncc(C4CC4)c3n2)C1
Ask: Rank order required: pIC50, descending. Record the ranking as a list of labels in the requested order.
Result: II, I, IV, V, III
(II: 6.51, I: 6.28, IV: 6.01, V: 5.20, III: 4.98)

a = N#Cc1cnn2c(NCc3ccc(-c4ccccn4)cc3)cc(N[C@H]3CCCNC3)nc12
b = CC(C)c1cnn2c(NCc3ccc(-c4ncccn4)cc3)cc(NC[C@H]3CCNC[C@@H]3O)nc12
Ask: Between a and b , whose measured pIC50 reads higher? Write the label of whichever entry you select.
Result: b

a = N#Cc1cnn2c(NCc3ccc(-c4ccccn4)cc3)cc(N[C@H]3CCNC3)nc12
b = c1ccc(-c2ccc(CNc3cc(NC4CNC4)nc4c(C5CC5)cnn34)cc2)nc1
c = O[C@H]1CNCC[C@@H]1CNc1cc(NCc2ccc(-n3cccn3)cc2)n2ncc(C3CC3)c2n1
Ask: # rank_down: sort by pIC50, max first // rank by listing labels in the order requested
Result: c, a, b

A = c1ccc(-c2ccc(CNc3cc(O[C@H]4CCCNC4)nc4c(C5CC5)cnn34)cc2)nc1
B = FC1(F)CNCCC1CNc1cc(NCc2ccc(-c3ccccn3)cc2)n2ncc(C3CC3)c2n1 (centres unmarked)
C = CCc1cnn2c(NCc3ccc(-c4ccccn4)cc3)cc(NC[C@H]3CCNC[C@@H]3O)nc12
Ask: Rank order required: pIC50, descending. Please, when replying, give the labels in the order that was requested.
Result: C, A, B

P = O[C@H]1CNCC[C@@H]1CNc1cc(NCc2ccc(-c3ncccc3C(F)(F)F)cc2)n2ncc(C3CC3)c2n1
Q = CCc1cnn2c(NCc3ccc(-c4ccccc4)cc3)cc(NC[C@H]3CCNC[C@@H]3O)nc12
Ask: Return label of the item with the larger pIC50. Candidates: P , Q . Please indicate the selected item by its label.
Result: Q
(Q: 6.90, P: 6.41)
